TARGET_OR_TEST_SYSTEM: T1, Recombinant human insulin receptor (B form) ECD (R&D Systems) (human, UniProt P06213 28-956, limits assumed)
T1 construct: extracellular domain; also called INSR-ECD; h-INSR
PROTOCOL: SPR (Biacore 2000), INSR-ECD immobilised, purified Fab injected, 1:1 fit
MEASUREMENT_LABEL: pKd
Answer as the number alone; pKd is minus log10 of concentration in mol/L.

Take a look at these entries with their results.
RHF.15.05896.036 (Fab, V domains shown, Untagged Fab) VH: EVQLVETGGGVVQPGRSLRLSCAASGFKFSSYAMHWVRQAPGKGLEWVAVISYSGGNKYYADSVKGRFTISRDNSKNTLYLQMNSLRAEDTAVYYCARHEWGFGFDLWGQGTTVTVSS VL: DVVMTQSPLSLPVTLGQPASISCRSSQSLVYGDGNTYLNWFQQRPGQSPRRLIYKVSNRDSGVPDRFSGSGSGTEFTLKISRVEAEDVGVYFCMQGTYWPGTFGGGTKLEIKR	8.74
RHF.15.05896.032 (Fab, V domains shown, Untagged Fab) VH: EVQLVETGGGVVQPGRSLRLSCAASGFKFSSYAMHWVRQAPGKGLEWVAVISYSGENKYYADSVKGRFTISRDNSKNTLYLQMNSLRAEDTAVYYCARHEWGFGFDEWGQGTTVTVSS VL: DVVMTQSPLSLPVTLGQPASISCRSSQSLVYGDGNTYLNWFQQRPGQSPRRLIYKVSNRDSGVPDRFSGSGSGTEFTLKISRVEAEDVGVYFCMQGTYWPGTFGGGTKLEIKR	8.96
RHF.15.05896.068 (Fab, V domains shown, Untagged Fab) VH: EVQLVETGGGVVQPGRSLRLSCAASGFKFSSYAMHWVRQAPGKGLEWVAVISYSGGNKYYADSVKGRFTISRDNSKNTLYLQMNSLRAEDTAVYYCARHEWGFGYDYWGQGTTVTVSS VL: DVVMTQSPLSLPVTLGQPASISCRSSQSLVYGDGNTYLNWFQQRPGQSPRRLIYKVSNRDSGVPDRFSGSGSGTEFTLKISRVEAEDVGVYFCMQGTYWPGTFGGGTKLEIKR	8.92

Query: pKd; subject: XPA.15.247.2.018 Fab (Fab, V domains shown, Monomeric Fab; also called XPA.247.2.018) VH: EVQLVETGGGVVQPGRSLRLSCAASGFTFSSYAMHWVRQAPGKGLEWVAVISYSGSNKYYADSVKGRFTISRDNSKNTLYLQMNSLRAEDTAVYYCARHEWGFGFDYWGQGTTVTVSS VL: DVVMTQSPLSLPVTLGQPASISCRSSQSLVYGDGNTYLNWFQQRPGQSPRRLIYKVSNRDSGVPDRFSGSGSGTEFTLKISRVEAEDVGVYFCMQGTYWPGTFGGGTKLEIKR
8.01
